Items are presented alongside their recorded Plant response rating, Pigweed.
- Test system: pigweed (Amaranthus retroflexus)
- run description: Test A postemergence, pigweed
- Assay type: in vivo
- test parameters: 125 g ai/ha, 0 to 100 scale, 0 no effect, 100 complete control
Respond using a number only.

As a guide, the following entries are already answered.
C[C@H](Nc1nc(N)c(C(F)(F)F)c(C(F)(F)F)n1)c1cc2ccccc2o1 : 30
CC(Nc1nc(N)c(C(F)(F)F)c(C(F)(F)F)n1)c1cc2ccccc2o1 (racemic) : 20
CC(F)c1nc(N[C@H](C)c2cc3ccccc3s2)nc(N)c1C(F)(F)F (some centres unmarked) : 90
CCC(Nc1ncc(C(F)(F)F)c(N)n1)c1coc2ccccc12 (racemic) : 60
C[C@H](Nc1ncc(C(F)(F)F)c(N)n1)c1csc2ccccc12 : 0
CC(C)[C@@H](Nc1ncc(C(F)(F)F)c(N)n1)c1cc2ccccc2s1 : 60
C[C@@H](Nc1ncc(C(F)(F)F)c(N)n1)c1csc2ccccc12 : 90

Write Plant response rating, Pigweed of C[C@H](Nc1ncc(C(F)(F)F)c(N)n1)c1coc2ccc(F)cc12 ; system used: pigweed (Amaranthus retroflexus)
20
